// values below are reported growth
# System: OVCAR-3 ovarian
# Method Notes: NCI-60 one-dose screen, 48 h (100 = growth as untreated, 0 = no growth, -100 = all killed)
# Measurement Context: 10 µM unless noted
About 83,000 compounds went through this panel and 20% of them were active in at least one assay; those are over-represented in the sample as a whole.
Observed Property: growth (%)

[[record]]
compound = "C/C(=N/Nc1nc2ccccc2n1C)c1ccccn1"
readout_value = 10.3

[[record]]
compound = "COc1ccc(-c2cc(-c3nnc(SCC(=O)Nc4ccc(/C(C)=N\\O)cc4)n3-c3ccccc3)c3cc(OC)ccc3n2)cc1"
readout_value = 77.4

[[record]]
compound = "O=C(CCc1nnco1)c1nc2ccc([N+](=O)[O-])cc2[nH]1"
readout_value = 105

[[record]]
compound = "COC(=O)c1ccc(NC(=O)CSc2nc(-c3ccc(F)cc3)nc3ccccc23)cc1"
readout_value = 16.8

[[record]]
compound = "COc1ccc(C2CC(c3ccc(OC)cc3O)=NN2c2ccc(S(N)(=O)=O)cc2)cc1 (stereo not given)"
readout_value = 47.7

[[record]]
compound = "COc1cc(-c2csc(NC(=O)Nc3ccc(C(F)(F)F)cc3)n2)cc(OC)c1OC"
readout_value = 1.73

[[record]]
compound = "Cc1ccccc1NC(=O)c1sc2nc(C)c(C(C)O)cc2c1N (stereo not given)"
readout_value = 27.8

[[record]]
compound = "CCCCc1n(Cc2ccc3ccccc3c2)c2ccccc2[n+]1Cc1ccc2ccccc2c1"
readout_value = -87.8

[[record]]
compound = "CC(C)(C)c1ccc(O)c(Cc2cc(C(C)(C)C)ccc2O)c1"
readout_value = 103

[[record]]
compound = "c1ccc(-c2n(Cc3ccc4ccccc4n3)cc[n+]2Cc2ccc3ccccc3n2)cc1"
readout_value = 28.8


====

# Tested on: HOP-92 NSCLC
# Method Notes: NCI-60 one-dose screen, 48 h (100 = growth as untreated, 0 = no growth, -100 = all killed)
# Measurement Context: 10 µM unless noted
About 83,000 compounds went through this panel and 20% of them were active in at least one assay; those are over-represented in the sample as a whole.
// values below are reported growth
Observed Property: growth (%)

[[record]]
compound = "COc1cc(C2CC(c3ccc(Nc4nc(NCCO)nc(NCCO)n4)cc3)=NN2c2cc(Cl)cc(Cl)c2)cc(OC)c1OC (configuration not stated)"
observed_property = "growth"
unit = "%"
readout_value = 89.9

[[record]]
compound = "Cc1ccc(C2CC(c3ccc(Nc4nc(NCCO)nc(NCCO)n4)cc3)=NN2c2ccc(Cl)cc2)cc1 (configuration not stated)"
observed_property = "growth"
unit = "%"
readout_value = 88.6

[[record]]
compound = "COc1cc(/C=C/C(=O)c2cccs2)ccc1OCc1ccc(Cl)nc1"
observed_property = "growth"
unit = "%"
readout_value = 85.2

[[record]]
compound = "Cc1cccc(C)c1NCc1nnc(-c2ccc(O)cc2)o1"
observed_property = "growth"
unit = "%"
readout_value = 88.3

[[record]]
compound = "OCCNc1nc(NCCO)nc(Nc2ccc(C3=NN(c4cc(Cl)cc(Cl)c4)C(c4ccc(Cl)cc4)C3)cc2)n1 (configuration not stated)"
observed_property = "growth"
unit = "%"
readout_value = 60.7

[[record]]
compound = "C=C(C)[C@@H]1CC[C@]2(C(N)=O)CC[C@]3(C)[C@H](CC[C@@H]4[C@@]5(C)CCCNC(C)(C)[C@@H]5CC[C@]43C)[C@@H]12"
observed_property = "growth"
unit = "%"
readout_value = 65.4

[[record]]
compound = "CCCCCCC/C=C/[C@H]1O[C@]23C(=O)C[C@@]4(C[C@@H](OC5OC(CO)C(O)C(O)C5O)C[C@@H]4[C@H]2C=C1C)OC3=O (some centres not stated)"
observed_property = "growth"
unit = "%"
readout_value = 59

[[record]]
compound = "CN(C)CCCn1c2c(c3cc(-c4cccc(S(N)(=O)=O)c4)ccc3c1=O)C(=O)c1ccccc1-2"
observed_property = "growth"
unit = "%"
readout_value = 104

[[record]]
compound = "COc1cccc(NC(=O)Nc2ccc(Nc3ncnc4[nH]c(C)c(C)c34)cc2)c1"
observed_property = "growth"
unit = "%"
readout_value = 104

[[record]]
compound = "Cc1cccc2nc3c(n12)C(=O)C(=O)c1ccccc1-3"
observed_property = "growth"
unit = "%"
readout_value = 92.6

[[record]]
compound = "O=c1nc(-c2ccccc2)c2cc(-c3ccc(N4CCCC4)nc3)ccc2[nH]1"
observed_property = "growth"
unit = "%"
readout_value = 61.4

[[record]]
compound = "O=C(Nc1ccccc1)NS(=O)(=O)c1c[nH]c(=S)[nH]c1=O"
observed_property = "growth"
unit = "%"
readout_value = 115

[[record]]
compound = "O=C1CCC23OC(c4ccccc4N12)C(O)C(O)C3O (configuration not stated)"
observed_property = "growth"
unit = "%"
readout_value = 113

[[record]]
compound = "CN1CCN(CC#CCOC(=O)CNC(=O)[C@]23CCC(C)(C)C[C@H]2C2=CC[C@@H]4[C@@]5(C)CC[C@H](O)C(C)(C)[C@@H]5CC[C@@]4(C)[C@]2(C)CC3)CC1"
observed_property = "growth"
unit = "%"
readout_value = 88.7

[[record]]
compound = "CC(C)(C)CC(C)(C)Cc1ccc(OCCOCC[N+](C)(C)Cc2ccccc2)cc1"
observed_property = "growth"
unit = "%"
readout_value = -7.72

[[record]]
compound = "C=C1C(=O)O[C@H]2[C@H]1CC/C(COC(=O)c1cccnc1)=C\\CC[C@@]1(C)O[C@@H]21"
observed_property = "growth"
unit = "%"
readout_value = 49.2

[[record]]
compound = "N#Cc1ccc(N2Cc3cc(Cl)ccc3OC3=C2C(=O)N(Cc2ccc(F)cc2)C3=O)cc1"
observed_property = "growth"
unit = "%"
readout_value = -64.1

[[record]]
compound = "CC(C)(C)c1nn(-c2ccccc2)c2c1COCN2Cc1ccc(Cl)cc1"
observed_property = "growth"
unit = "%"
readout_value = 83.1

[[record]]
compound = "CCc1c(C(=O)N[C@@H](C(=O)OCc2ccccc2)C(C)O)[nH]c2ccc(Cl)cc12 (some centres not stated)"
observed_property = "growth"
unit = "%"
readout_value = 74.5

[[record]]
compound = "CC(=O)Nc1nc2c(c(N)c1C#N)C(c1cccc(Cl)c1)C1=C(CCCC1=O)N2c1sc2c(c1C#N)CCCC2 (configuration not stated)"
observed_property = "growth"
unit = "%"
readout_value = 40.1

[[record]]
compound = "CC(=O)Nc1c(C(=O)Nc2ccccc2)sc2nc3c(cc12)C(OC(C)=O)CCC3 (configuration not stated)"
observed_property = "growth"
unit = "%"
readout_value = 86.9

[[record]]
compound = "CNC(=O)c1cc(Oc2ccc3c(c2)sc2nc(-c4ccc(NC(C)=O)cc4)cn23)ccn1"
observed_property = "growth"
unit = "%"
readout_value = 35.3

[[record]]
compound = "COc1cc(-c2nn(-c3ccc(Br)cc3)cc2CO)ccc1O"
observed_property = "growth"
unit = "%"
readout_value = 90.8

[[record]]
compound = "Cc1cccc(C)c1Nc1nnc(-c2ccc(F)cc2)o1"
observed_property = "growth"
unit = "%"
readout_value = 95.5

[[record]]
compound = "Cc1c(O)c(=O)ccn1-c1nc2ccccc2s1"
observed_property = "growth"
unit = "%"
readout_value = 98.4

[[record]]
compound = "O=C(O)c1cn(C2CC2)c2cc(N3CCN(Cc4nnc(Nc5ccccc5)o4)CC3)c(F)cc2c1=O"
observed_property = "growth"
unit = "%"
readout_value = 104

[[record]]
compound = "COc1ccc2[nH]c(=O)c(/C=C/C(=O)/C=C/c3ccc(O)c(OC)c3)cc2c1"
observed_property = "growth"
unit = "%"
readout_value = 98.3

[[record]]
compound = "COc1ccc2c(c1)Oc1nc(N)c(C#N)c(N)c1C2Sc1ccc(SC)cc1 (configuration not stated)"
observed_property = "growth"
unit = "%"
readout_value = 18.4

[[record]]
compound = "CC(=O)Nc1ccc2c(c1)Cc1cc(F)ccc1-2"
observed_property = "growth"
unit = "%"
readout_value = 93.4

[[record]]
compound = "COc1ccccc1Nc1nnc(-c2ccc(Cl)cc2)o1"
observed_property = "growth"
unit = "%"
readout_value = 91.1

[[record]]
compound = "COC1=CC2C=C(C3N(c4ccccc4)NC(=O)[C@@H]4CCCN34)C(=O)NC2C=C1 (some centres not stated)"
observed_property = "growth"
unit = "%"
readout_value = 124

[[record]]
compound = "CC1CCN(CCCCCOc2ccc3oc4ccccc4c(=O)c3c2)CC1"
observed_property = "growth"
unit = "%"
readout_value = 83.7

[[record]]
compound = "Fc1ccc(N/N=C/c2ccc(-n3cccn3)cc2)cc1"
observed_property = "growth"
unit = "%"
readout_value = 105

[[record]]
compound = "COc1cc(-c2csc(NC(=O)Nc3ccc(C(F)(F)F)cc3)n2)cc(OC)c1OC"
observed_property = "growth"
unit = "%"
readout_value = -24.5

[[record]]
compound = "[2H]c1nc(Nc2ncc3cc(C(=O)N(C)C)n(C4CCCC4)c3n2)c([2H])c([2H])c1N1C([2H])([2H])C([2H])([2H])NC([2H])([2H])C1([2H])[2H]"
observed_property = "growth"
unit = "%"
readout_value = 65.8

[[record]]
compound = "C#C[C@@]1(O)[C@@H](CO)O[C@@H](n2cc(Br)c3c(N)ncnc32)[C@@H]1O"
observed_property = "growth"
unit = "%"
readout_value = -27.2

[[record]]
compound = "COc1c(O)cc2oc3cc(O[C@@H]4OC(C)[C@@H](O)[C@H](O)C4O)c(CC=C(C)C)c(O)c3c(=O)c2c1CC=C(C)C (some centres not stated)"
observed_property = "growth"
unit = "%"
readout_value = 89.2

